Assignment: determine reported IC50 for the given binders.
experimental-system: T1, human IGFBP-1 (human, UniProt P08833 26-259)
T1 construct: mature; Secreted recombinant protein; also called IGFBP-I
T1 sequence (looked up): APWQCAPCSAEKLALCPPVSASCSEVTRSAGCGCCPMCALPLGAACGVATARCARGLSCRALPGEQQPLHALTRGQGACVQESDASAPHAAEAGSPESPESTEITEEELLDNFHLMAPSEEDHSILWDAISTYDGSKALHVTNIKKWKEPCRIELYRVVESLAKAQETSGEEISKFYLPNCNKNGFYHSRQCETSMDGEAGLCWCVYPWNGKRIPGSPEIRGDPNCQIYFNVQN
assay-protocol: competitive phage ELISA
One number for each entry, in nM.

- binder: "IGF-I R56A displayed on phage (ligand, On phage; G1S-A70V template; not shown: Display partner: M13 gene III protein fragment (residues 249-406, mature count) and the junction to it) SPETLCGAELVDALQFVCGDRGFYFNKPTGYGSSSRRAPQTGIVDECCFRSCDLRALEMYCAPLKPAKSV"
  IC50 (nM): 13.1
- binder: "IGF-I G19A displayed on phage (ligand, On phage; G1S-A70V template; not shown: M13 gene III fragment (residues 249-406), the display carrier, and its junction) SPETLCGAELVDALQFVCADRGFYFNKPTGYGSSSRRAPQTGIVDECCFRSCDLRRLEMYCAPLKPAKSV"
  IC50 (nM): 11

Take each entry in turn and give its IC50.
1. IGF-I Y60A displayed on phage (ligand, On phage; G1S-A70V template; not shown: M13 gene III protein fragment (residues 249-406), the phage display carrier, and its junction to IGF-I) SPETLCGAELVDALQFVCGDRGFYFNKPTGYGSSSRRAPQTGIVDECCFRSCDLRRLEMACAPLKPAKSV
2. IGF-I K27A displayed on phage (ligand, On phage; G1S-A70V template; not shown: Display carrier: M13 gene III protein fragment (residues 249-406) and the junction to it) SPETLCGAELVDALQFVCGDRGFYFNAPTGYGSSSRRAPQTGIVDECCFRSCDLRRLEMYCAPLKPAKSV
3. IGF-I K65A displayed on phage (ligand, On phage; G1S-A70V template; not shown: M13 gene III protein fragment (residues 249-406), the phage display carrier, and its junction to IGF-I) SPETLCGAELVDALQFVCGDRGFYFNKPTGYGSSSRRAPQTGIVDECCFRSCDLRRLEMYCAPLAPAKSV

Reply:
1: 6.6; 2: 12.8; 3: 12.4
